Quick list: normalized growth per entry.
Assay: chemical genetic growth profiling, strain panel (AID 1159580);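 note: tested at 20 µM; growth read once vehicle control cultures reached saturation at 30 °C; 1 = growth at the plate median or of vehicle wells; lower values mean less growth of the strain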
Conditions: S. cerevisiae deletion strains, growth OD, locus YLR102C, strain apc9, hits give low values
The campaign covered roughly 5,500 compounds. About 2,000 (36%) were called active. About 18% were inconclusive and are not listed. Some of the results follow.
# answer = number (no unit)

Some entries whose results are on file:
1) C=CCC1(C(C)CCC)C(=O)N=C(S)NC1=O (stereo not given)
0.966
2) CNc1ccccc1C(=O)O
1
3) C[C@H](N)[C@H](O)c1ccc(O)c(O)c1
0.988
4) CC1(C)C(C(Cl)Cl)C2(Cl)C(Cl)C(Cl)C1(Cl)C2(Cl)Cl (stereo not given)
0.979
5) COc1cc(OC)c2c(=O)c(-c3ccccc3)c(C)oc2c1OC
0.999
6) NCC(CC(=O)O)c1ccc(Cl)s1 (stereo not given)
0.998
7) CC(Cc1ccc(O)c(O)c1)C(C)Cc1ccc(O)c(O)c1 (stereo not given)
1.01
8) O=C1CCCC2C3CC(CN12)[C@@H]1CCCCN1C3 (stereo not given in full)
0.992
9) Nc1ccc(S(=O)(=O)Nc2ccccn2)cc1
0.993

Any idea what normalized growth was measured for CC1(C)C(O)CC(O)C2(C)C1CC(=O)C1(C)C2CCC2(C)C(C(=O)O)OC(=O)C3OC321 (stereo not given) ? 0.998

====

Listed here: items and their measured normalized growth.
Test: chemical genetic growth profiling, strain panel (AID 1159580);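 note: tested at 20 µM; growth read once vehicle control cultures reached saturation at 30 °C; 1 = growth at the plate median or of vehicle wells; lower values mean less growth of the strain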
Details: S. cerevisiae deletion strains, growth OD, locus YDL101C, strain DUN1, hits give low values
Hit rate of the full screen: of about 5,500 compounds, about 2,000 (36%) were called active. Another 18% or so got no clear call; they are omitted. The list shows a part of the results.
Simply state the number, no unit and no words.

Field: example entries. Status: answers known.
1) CC(=O)Nc1ccc([N+](=O)[O-])cc1[N+](=O)[O-]
0.671
2) COc1ccc(C(=O)CSC2=NCCc3ccccc32)cc1
0.976
3) CC1(C)C(=O)C=CC2(C)C3CCC4(C)C(c5ccoc5)CC5OC54C3C(O)CC12 (centres undefined)
0.958

Dear colleague, I am looking for the recorded normalized growth of the following molecule: `COc1ccc(C(Cl)=C(c2ccc(OC)cc2)c2ccc(OC)cc2)cc1` 1.03

====

Assay: chemical genetic growth profiling, strain panel (AID 1159580);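 note: tested at 20 µM; growth read once vehicle control cultures reached saturation at 30 °C; 1 = growth at the plate median or of vehicle wells; lower values mean less growth of the strain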
Conditions: S. cerevisiae deletion strains, growth OD, locus YJL095W, strain BCK1, hits give low values
In all, about 5,500 compounds went through this assay and about 2,000 (36%) were called active. Roughly 18% stayed inconclusive and do not appear here. The list shows a part of the results.
endpoint-name: normalized growth
Could you respond with only the numeric value?

1) CCCCC(CC)CN1CN(CC(CC)CCCC)CC(C)(N)C1 (stereo not drawn)
0.188
2) CC(C)c1ccc(NC(=S)NC(=O)c2ccccc2)cc1
0.883
3) CC(=O)c1sc(SCCS(=O)(=O)c2ccc(C)cc2)c2c1CC(C)(C)CC2=O
0.589
4) O=C(O)CS
1.04
5) Nc1nc2c(ncn2C2C[C@H](O)[C@@H](CO)O2)c(=O)[nH]1 (stereo partly drawn)
1
6) NCCNC(=O)c1ccc(Cl)cc1
1.02

Give the measured normalized growth of `COC(=O)Oc1ccccc1C(=O)O` . 1.05

Continue with `CCCc1c(C(=O)Sc2ccccn2)cnn1-c1ccc(Cl)cc1` 0.951
